system: Colletotrichum fragariae; test: Antifungal activity against Colletotrichum fragariae by TLC bioautography; assay type: functional, organism-based
The source made the active and inactive calls. The rule behind the calls is not given here.
In this exercise, the only acceptable responses are true (1) = active, false (0) = inactive

Worked set:
COC(=O)CCc1ccc(O)cc1 :: true (1)
C#CC(C)(C)Oc1ccc(CC(=O)OCC)cc1OC :: true (1)

Moving on to another compound below.
In: For CC1(C)C=Cc2cc(CCN)ccc2O1 , what call appears in the results of this test?
Out: false (0)

====

Below, each entry is listed alongside its reported inhibition of growth at 100 µM.
test system: Botrytis cinerea; experiment: Fungicidal activity against Botryotinia fuckeliana assessed as growth inhibition at 100 uM after 72 hr by microbioassay; type: functional; details: read-out: GI

COC(=O)c1cccc2c1C=CC(C)(C)O2 :: > 50%

In: Which inhibition of growth at 100 µM reading was recorded for the compound CC1(C)C=Cc2cc(CCCO)ccc2O1 ?
Out: > 50%

In: Moving on to CC(C)CC(=O)N(C)CCc1ccc2c(c1)C=CC(C)(C)O2
Out: 80%

====

test system: Colletotrichum fragariae; assay: Antifungal activity against Colletotrichum fragariae by TLC bioautography; assay type: functional, organism-based
Calls of active or inactive are those of the source. The rule behind the calls is not given here.
In this exercise, the only acceptable responses are t for active, f for inactive

CC1(C)C=Cc2cc(CCO)ccc2O1 :: t
CC1(C)C=Cc2ccc(CO)cc2O1 :: t
COC(=O)c1ccc2c(c1)C=CC(C)(C)O2 :: t
CC(C)NCc1cccc2c1C=CC(C)(C)O2 :: f
CC1(C)C=Cc2cc(CO)ccc2O1 [EULATACHROMENE] :: t

In: For CC(C)NCc1ccc2c(c1)OC(C)(C)C=C2 , what call appears in the results of this test?
Out: f

In: Moving on to COc1cc(CCO)cc2c1OC(C)(C)C=C2
Out: t

====

Below, each entry is listed alongside its reported inhibition of growth at 100 µM.
system: Botrytis cinerea; experiment: Fungicidal activity against Botryotinia fuckeliana assessed as growth inhibition at 100 uM after 72 hr by microbioassay; format: functional; details: read-out: GI

In: Which inhibition of growth at 100 µM reading was recorded for the compound CC1(C)C=Cc2cc(CO)ccc2O1 [EULATACHROMENE] ?
Out: 30%

In: Moving on to CC1(C)C=Cc2ccc(CO)cc2O1
Out: > 50%

In: Moving on to COC(=O)Cc1ccc2c(c1)C=CC(C)(C)O2
Out: 30%

In: Moving on to CC1(C)C=Cc2cc(CCO)ccc2O1
Out: > 50%

In: Moving on to COC(=O)c1ccc2c(c1)C=CC(C)(C)O2
Out: > 50%

In: Moving on to COC(=O)c1ccc2c(c1)OC(C)(C)C=C2
Out: > 50%

====

tested on: Colletotrichum fragariae; assay: Antifungal activity against Colletotrichum fragariae by TLC bioautography; assay type: functional, organism-based
Active and inactive are the calls of the source. No cut-off for these calls is given here.
In this exercise, the only acceptable responses are active, inactive

Worked set:
CC(C)NCCc1ccc2c(c1)C=CC(C)(C)O2 :: inactive
CC(C)NCCCc1ccc2c(c1)C=CC(C)(C)O2 :: inactive
CC(C)NCc1ccc2c(c1)C=CC(C)(C)O2 :: inactive
COc1cc(CCNC(C)C)cc2c1OC(C)(C)C=C2 :: inactive

Moving on to another compound below.
In: For COC(=O)Cc1ccc2c(c1)C=CC(C)(C)O2 , what call appears in the results of this test?
Out: active

====

system: Colletotrichum fragariae; assay: Antifungal activity against Colletotrichum fragariae by TLC bioautography; format: functional, organism-based
The source made the active and inactive calls. The rule behind the calls is not given here.
In this exercise, the only acceptable responses are active, inactive

Worked set:
CNCCc1ccc2c(c1)C=CC(C)(C)O2 :: inactive
CCOC(=O)Cc1cc2c(c(OC)c1)OC(C)(C)C=C2 :: active
C#CC(C)(C)Oc1cccc(C(=O)OC)c1 :: active
COC(=O)c1ccc2c(c1)OC(C)(C)C=C2 :: active

In: For COC(=O)c1cccc2c1C=CC(C)(C)O2 , what call appears in the results of this test?
Out: active

In: Moving on to C#CC(C)(C)Oc1ccc(C(=O)OC)cc1
Out: active

In: Moving on to C#CC(C)(C)Oc1ccc(CC(=O)OC)cc1
Out: active

In: Moving on to COC(=O)CCc1ccc2c(c1)C=CC(C)(C)O2
Out: active

In: Moving on to CC1(C)C=Cc2c(CO)cccc2O1
Out: active

In: Moving on to C#CC(C)(C)Oc1ccc(CCC(=O)OC)cc1
Out: active

In: Moving on to CC1(C)C=Cc2cc(CCCO)ccc2O1
Out: active

These entries and their values trace back to ChEMBL document CHEMBL3045750.
